From: paper PMC2746281

Biological target: Hck (Homo sapiens, UniProt P08631)
Construct: Hck (2-526; BC014435); 6xHN (N)
Sequence (P08631 23-526 limits assumed): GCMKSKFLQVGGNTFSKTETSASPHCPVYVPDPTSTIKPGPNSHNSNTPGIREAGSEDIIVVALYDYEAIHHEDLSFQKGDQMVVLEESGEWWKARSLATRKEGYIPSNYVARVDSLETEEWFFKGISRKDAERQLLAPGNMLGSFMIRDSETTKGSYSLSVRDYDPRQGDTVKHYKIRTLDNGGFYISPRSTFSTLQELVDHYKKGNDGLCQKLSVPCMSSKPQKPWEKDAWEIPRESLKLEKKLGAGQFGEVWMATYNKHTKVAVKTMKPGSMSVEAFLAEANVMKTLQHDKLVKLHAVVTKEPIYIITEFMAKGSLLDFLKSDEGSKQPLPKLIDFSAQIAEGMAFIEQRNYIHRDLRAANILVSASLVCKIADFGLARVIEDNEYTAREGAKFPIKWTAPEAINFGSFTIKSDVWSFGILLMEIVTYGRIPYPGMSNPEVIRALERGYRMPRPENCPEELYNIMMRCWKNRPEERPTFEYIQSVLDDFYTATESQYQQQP
Experiment: Recombinant kinase ELISA assay, Hck
Conditions: recombinant human enzyme; ELISA-based assay, poly(Glu,Tyr 4:1) substrate
reported property: IC50 (nM)
Report as a plain number; the unit nM is understood.

Entry CS(=O)(=O)O.CS(=O)(=O)O.Cc1ccc(NC(=O)c2ccc(CN3CCN(C)CC3)cc2)cc1Nc1nc(-c2cccnc2)cs1 [masitinib] — recorded IC50 = 2000

* * *

Target: Src (Homo sapiens, UniProt P12931)
Construct: Src (2–536; BC011566); 6xHN (N)
Sequence (P12931 2-536): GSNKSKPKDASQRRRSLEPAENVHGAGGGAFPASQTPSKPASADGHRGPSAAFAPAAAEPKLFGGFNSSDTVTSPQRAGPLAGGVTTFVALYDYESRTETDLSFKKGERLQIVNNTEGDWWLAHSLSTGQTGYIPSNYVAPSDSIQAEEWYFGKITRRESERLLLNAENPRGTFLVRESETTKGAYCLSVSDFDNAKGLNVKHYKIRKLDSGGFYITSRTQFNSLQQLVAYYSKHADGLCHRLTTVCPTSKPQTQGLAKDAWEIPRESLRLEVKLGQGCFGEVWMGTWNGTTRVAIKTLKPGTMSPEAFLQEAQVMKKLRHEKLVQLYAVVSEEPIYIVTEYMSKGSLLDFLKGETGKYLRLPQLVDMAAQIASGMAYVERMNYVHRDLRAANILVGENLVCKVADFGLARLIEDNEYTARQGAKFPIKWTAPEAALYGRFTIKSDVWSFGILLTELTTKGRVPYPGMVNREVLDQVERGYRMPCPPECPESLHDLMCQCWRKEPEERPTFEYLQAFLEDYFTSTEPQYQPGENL
Test: Recombinant kinase ELISA assay, Src
Conditions: recombinant human enzyme; ELISA-based assay, poly(Glu,Tyr 4:1) substrate
reported property: IC50 (µM)
Report as a plain number; the unit µM is understood.

Entry CS(=O)(=O)O.CS(=O)(=O)O.Cc1ccc(NC(=O)c2ccc(CN3CCN(C)CC3)cc2)cc1Nc1nc(-c2cccnc2)cs1 — recorded IC50 = 1.87

* * *

Target: c-Fms (Homo sapiens)
Construct: expressed in transfected cells; host or cells: Ba/F3 (general description; not repeated for this kinase)
Assay: Ba/F3 cell proliferation (WST-1), c-Fms
Conditions: Ba/F3 cells expressing the enzyme, read-out: Cell-based assay IC50, c-Fms
reported property: pIC50
Remember the convention: pIC50 equals -log10 of concentration in molar.

Measured pIC50 (c-Fms (Homo sapiens)), entry CS(=O)(=O)O.CS(=O)(=O)O.Cc1ccc(NC(=O)c2ccc(CN3CCN(C)CC3)cc2)cc1Nc1nc(-c2cccnc2)cs1 : 6.00

* * *

Biological target: Insulin-like growth factor-I receptor (Homo sapiens)
Sequence (P08069 31-1367): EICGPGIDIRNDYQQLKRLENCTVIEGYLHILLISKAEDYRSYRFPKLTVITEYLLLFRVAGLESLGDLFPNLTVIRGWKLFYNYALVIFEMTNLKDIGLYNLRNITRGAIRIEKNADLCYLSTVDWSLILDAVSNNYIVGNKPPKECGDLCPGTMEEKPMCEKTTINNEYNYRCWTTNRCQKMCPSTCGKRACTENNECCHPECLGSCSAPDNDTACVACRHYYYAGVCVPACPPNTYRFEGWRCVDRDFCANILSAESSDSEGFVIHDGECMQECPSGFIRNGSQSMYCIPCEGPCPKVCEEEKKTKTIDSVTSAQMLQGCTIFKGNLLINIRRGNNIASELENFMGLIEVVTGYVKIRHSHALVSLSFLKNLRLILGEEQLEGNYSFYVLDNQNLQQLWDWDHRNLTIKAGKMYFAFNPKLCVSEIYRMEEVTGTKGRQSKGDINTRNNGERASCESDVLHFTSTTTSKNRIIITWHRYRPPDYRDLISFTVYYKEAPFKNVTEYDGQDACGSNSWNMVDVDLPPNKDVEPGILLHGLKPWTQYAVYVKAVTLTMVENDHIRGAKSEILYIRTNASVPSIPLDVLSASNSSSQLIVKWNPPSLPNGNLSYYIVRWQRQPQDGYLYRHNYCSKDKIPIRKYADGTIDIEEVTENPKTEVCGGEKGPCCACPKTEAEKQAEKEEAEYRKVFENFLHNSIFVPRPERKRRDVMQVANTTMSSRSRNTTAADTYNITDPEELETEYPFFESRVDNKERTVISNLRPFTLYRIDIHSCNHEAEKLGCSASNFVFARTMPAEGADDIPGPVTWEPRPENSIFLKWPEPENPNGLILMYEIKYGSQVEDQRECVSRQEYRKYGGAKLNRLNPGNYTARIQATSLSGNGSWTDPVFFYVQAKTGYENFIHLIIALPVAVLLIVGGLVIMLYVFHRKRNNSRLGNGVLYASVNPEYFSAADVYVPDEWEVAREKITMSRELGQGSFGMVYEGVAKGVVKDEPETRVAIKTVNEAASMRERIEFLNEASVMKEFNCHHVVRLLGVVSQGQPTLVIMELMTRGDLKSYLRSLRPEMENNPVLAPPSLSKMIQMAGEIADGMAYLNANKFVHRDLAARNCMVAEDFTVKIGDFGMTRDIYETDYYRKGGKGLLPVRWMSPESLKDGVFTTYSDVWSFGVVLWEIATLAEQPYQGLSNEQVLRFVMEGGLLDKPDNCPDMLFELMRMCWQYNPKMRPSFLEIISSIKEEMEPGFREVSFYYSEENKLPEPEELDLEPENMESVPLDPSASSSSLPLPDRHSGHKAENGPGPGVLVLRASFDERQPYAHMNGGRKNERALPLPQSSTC
Experiment: Recombinant kinase screen (Proqinase), IGF-I receptor
Type: biochemical
Conditions: recombinant human enzyme; single experiment, kinase screen by Proqinase
reported property: IC50

Entry CS(=O)(=O)O.CS(=O)(=O)O.Cc1ccc(NC(=O)c2ccc(CN3CCN(C)CC3)cc2)cc1Nc1nc(-c2cccnc2)cs1 — recorded IC50 = > 10 µM

* * *

Target: Bmx (Homo sapiens)
Construct: Bmx (2–675; BC016652); 6xHN (N)
Sequence (P51813 2-675): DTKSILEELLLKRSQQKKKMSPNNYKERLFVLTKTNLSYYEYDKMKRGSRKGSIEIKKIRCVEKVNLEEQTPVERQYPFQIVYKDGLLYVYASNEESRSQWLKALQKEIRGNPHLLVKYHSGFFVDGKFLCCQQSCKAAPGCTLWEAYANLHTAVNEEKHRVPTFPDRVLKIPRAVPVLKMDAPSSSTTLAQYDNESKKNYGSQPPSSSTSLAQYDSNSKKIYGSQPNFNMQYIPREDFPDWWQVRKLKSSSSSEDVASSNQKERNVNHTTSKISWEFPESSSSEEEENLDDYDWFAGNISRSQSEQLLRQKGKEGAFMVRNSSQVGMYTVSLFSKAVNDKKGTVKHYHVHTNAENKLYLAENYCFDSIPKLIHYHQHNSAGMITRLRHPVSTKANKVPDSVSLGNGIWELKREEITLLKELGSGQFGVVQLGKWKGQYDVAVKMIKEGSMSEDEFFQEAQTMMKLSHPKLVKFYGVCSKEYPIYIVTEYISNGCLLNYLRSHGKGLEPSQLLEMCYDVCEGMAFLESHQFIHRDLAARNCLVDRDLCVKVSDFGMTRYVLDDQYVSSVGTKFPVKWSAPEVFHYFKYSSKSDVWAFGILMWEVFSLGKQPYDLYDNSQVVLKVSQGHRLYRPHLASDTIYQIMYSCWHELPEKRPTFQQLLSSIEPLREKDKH
Assay: Recombinant kinase ELISA assay, Bmx
Conditions: recombinant human enzyme; ELISA-based assay, poly(Glu,Tyr 4:1) substrate
reported property: IC50

Entry CS(=O)(=O)O.CS(=O)(=O)O.Cc1ccc(NC(=O)c2ccc(CN3CCN(C)CC3)cc2)cc1Nc1nc(-c2cccnc2)cs1 [masitinib] — recorded IC50 = > 10 µM

* * *

Target: Proline-rich Tyrosine kinase (FAK2/PYK2) (Homo sapiens, UniProt Q14289)
Construct: PYK2 (2-1006; BC042599); 6xHN (N)
Sequence (Q14289 2-1006): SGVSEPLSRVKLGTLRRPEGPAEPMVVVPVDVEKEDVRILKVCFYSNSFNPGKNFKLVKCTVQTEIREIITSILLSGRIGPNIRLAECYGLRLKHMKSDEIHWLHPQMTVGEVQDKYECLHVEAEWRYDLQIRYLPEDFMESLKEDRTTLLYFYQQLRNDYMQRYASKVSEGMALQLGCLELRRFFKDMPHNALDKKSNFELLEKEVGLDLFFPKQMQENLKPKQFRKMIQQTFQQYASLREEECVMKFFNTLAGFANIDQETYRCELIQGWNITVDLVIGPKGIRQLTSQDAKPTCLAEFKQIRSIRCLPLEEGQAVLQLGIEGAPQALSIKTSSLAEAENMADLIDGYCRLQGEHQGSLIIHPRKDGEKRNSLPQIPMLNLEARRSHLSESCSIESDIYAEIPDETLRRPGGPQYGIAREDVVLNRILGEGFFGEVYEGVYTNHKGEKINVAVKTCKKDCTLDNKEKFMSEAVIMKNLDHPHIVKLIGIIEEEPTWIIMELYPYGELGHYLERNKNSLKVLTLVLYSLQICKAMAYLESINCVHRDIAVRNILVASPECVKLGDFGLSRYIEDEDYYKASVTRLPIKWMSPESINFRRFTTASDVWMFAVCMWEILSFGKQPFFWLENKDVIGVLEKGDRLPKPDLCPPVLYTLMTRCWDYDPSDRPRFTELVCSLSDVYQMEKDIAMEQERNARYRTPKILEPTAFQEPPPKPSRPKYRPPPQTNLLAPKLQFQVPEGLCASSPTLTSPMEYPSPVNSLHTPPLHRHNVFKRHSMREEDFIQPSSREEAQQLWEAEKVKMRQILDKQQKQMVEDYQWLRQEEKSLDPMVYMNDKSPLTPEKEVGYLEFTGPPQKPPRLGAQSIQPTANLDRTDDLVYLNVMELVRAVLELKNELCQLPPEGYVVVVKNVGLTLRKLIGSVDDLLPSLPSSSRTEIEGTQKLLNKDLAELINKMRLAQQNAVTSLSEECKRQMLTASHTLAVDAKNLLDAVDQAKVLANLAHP
Experiment: Recombinant kinase ELISA assay, PYK2
Conditions: recombinant human enzyme; ELISA-based assay, poly(Glu,Tyr 4:1) substrate
pIC50: −log10 of the molar value.
reported property: pIC50

Entry CS(=O)(=O)O.CS(=O)(=O)O.Cc1ccc(NC(=O)c2ccc(CN3CCN(C)CC3)cc2)cc1Nc1nc(-c2cccnc2)cs1 — recorded pIC50 = < 5.00

* * *

Molecular target: Pim1 (Homo sapiens)
Sequence (P11309 whole entry): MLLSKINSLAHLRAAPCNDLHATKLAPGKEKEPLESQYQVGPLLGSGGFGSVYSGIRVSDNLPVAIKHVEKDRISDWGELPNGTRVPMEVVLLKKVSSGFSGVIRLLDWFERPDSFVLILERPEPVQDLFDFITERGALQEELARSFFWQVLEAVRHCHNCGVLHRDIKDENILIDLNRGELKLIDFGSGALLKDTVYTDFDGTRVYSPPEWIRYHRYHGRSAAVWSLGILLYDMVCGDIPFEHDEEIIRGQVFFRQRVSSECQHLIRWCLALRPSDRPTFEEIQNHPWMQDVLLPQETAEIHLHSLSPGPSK
Experiment: Recombinant kinase screen (Proqinase), Pim1
Details: recombinant human enzyme; single experiment, kinase screen by Proqinase
pIC50: −log10 of the molar value.
reported property: pIC50

Entry CS(=O)(=O)O.CS(=O)(=O)O.Cc1ccc(NC(=O)c2ccc(CN3CCN(C)CC3)cc2)cc1Nc1nc(-c2cccnc2)cs1 [masitinib] — recorded pIC50 = < 5.00
